molecular target: Menin MLL 4-43 (Homo sapiens, UniProt O00255); assay: Fluorescence polarization (FP) competition assay of the menin-MLL interaction; type: binding; conditions: fluorescence polarization assay; read-out: Menin MLL 4-43 IC50
QUANTITY MEASURED: IC50

Query string: Quick one: IC50 for CNc1nc(NC2CCN(Cc3cc4cc(C#N)n(C[C@H](C)N5CCN(S(C)(=O)=O)CC5)c4cc3O)CC2)c2cc(CC(F)(F)F)sc2n1 [Compound 194] ?
Result string: < 0.05 µM

Query string: Report IC50 for Cc1c(CN2CCC(Nc3nc(N)nc4sc(CC(F)(F)F)cc34)CC2)ccc2c1cc(C#N)n2C[C@H](C)N1C[C@@H](C)N(S(C)(=O)=O)[C@H](C)C1 [Compound 179] please.
Result string: 0.05 to 0.25 µM

Query string: What IC50 value was documented for this compound, Cc1c(CN2CCC(Nc3ncnc4sc(CC(F)(F)F)cc34)CC2)ccc2c1cc(C#N)n2CC(C)N1CCN(S(C)(=O)=O)CC1 (stereo not drawn) [Compound 3] ?
Result string: 0.02 to 1 µM

Query string: If you can, please state the reported IC50 value of Cc1c(CN2CCC(Nc3ncnc4sc(CC(F)(F)F)cc34)CC2)ccc2c1cc(C#N)n2C[C@H](C)N1CCN(S(=O)(=O)C(F)F)CC1 [Compound 144] .
Result string: 0.05 to 0.25 µM

Query string: Fill in the blank: the reported IC50 of CNc1nc(NC2CCN(Cc3ccc4c(cc(C#N)n4C[C@H](C)N4CCN(S(C)(=O)=O)C(CO)C4)c3C)CC2)c2cc(CC(F)(F)F)sc2n1 (stereo partly drawn) [Compound 233] is ____.
Result string: < 0.05 µM

Query string: Record request: IC50 value, item CCS(=O)(=O)N1CCN(C(C)Cn2c(C#N)cc3c(C)c(CN4CCC(Nc5ncnc6sc(CC(F)(F)F)cc56)CC4)ccc32)CC1 (stereo not drawn) [Compound 4]
Result string: 0.05 to 0.25 µM

Query string: Can you share its IC50? I mean this compound: CNc1nc(NC2CCN(Cc3ccc4c(cc(C#N)n4C[C@H](C)N4CCOC(C(N)=O)C4)c3C)CC2)c2cc(CC(F)(F)F)sc2n1 (stereo partly drawn) [Compound 216]
Result string: < 0.05 µM

Query string: Fill in the blank: the reported IC50 of Cc1c(CN2CCC(Nc3nc(N)nc4sc(CC(F)(F)F)cc34)CC2)ccc2c1cc(C#N)n2C[C@H](C)N1CCN(C2CC2)CC1 [Compound 190] is ____.
Result string: 0.05 to 0.25 µM

----------
biological target: Menin MLL 4-43 (Homo sapiens); assay: Fluorescence polarization (FP) competition assay of the menin-MLL interaction; type: binding; conditions: fluorescence polarization assay; read-out: Menin MLL 4-43 IC50
pIC50: −log10 of the molar value.
QUANTITY MEASURED: pIC50

Query string: # lookup: pIC50 of Cc1c(CN2CCC(Nc3ncnc4sc(CC(F)(F)F)cc34)CC2)ccc2c1cc(C#N)n2CC(C)N1CCN(S(C)(=O)=O)[C@H](C)C1 (stereo partly drawn)
Result string: > 7.30

Query string: May I ask what pIC50 has been recorded for `CNC(=O)[C@@H]1CN([C@@H](C)Cn2c(C#N)cc3c(C)c(CN4CCC(Nc5nc(NC)nc6sc(CC(F)(F)F)cc56)CC4)ccc32)CCN1S(C)(=O)=O` ?
Result string: > 7.30

Query string: # lookup: pIC50 of `C=CC(=O)NC1CCN([C@@H](C)Cn2c(C#N)cc3c(C)c(CN4CCC(Nc5nc(NC)nc6sc(CC(F)(F)F)cc56)CC4)ccc32)CC1`
Result string: > 7.30

Query string: Name the reported pIC50 value associated with the compound `Cc1c(CN2CCC(Nc3ncnc4sc(CC(F)(F)F)cc34)CC2)ccc2c1cc(C#N)n2CCN1CCC(NS(C)(=O)=O)CC1`
Result string: 6.00 to 7.70

Query string: GET /values?readout=pIC50&item= [2H]C([2H])(C(C)N1CCN(S(C)(=O)=O)CC1)n1c(C#N)cc2c(C)c(CN3CCC(Nc4ncnc5sc(CC(F)(F)F)cc45)CC3)ccc21 (stereo not drawn)
Result string: 6.60 to 7.30

----------
target: Menin MLL 4-43 (Homo sapiens); assay: Fluorescence polarization (FP) competition assay of the menin-MLL interaction; type: binding; settings: fluorescence polarization assay; read-out: Menin MLL 4-43 IC50
QUANTITY MEASURED: IC50

Reference set, count: 2
# MOLECULE, IC50
measured = [
    ("Cc1c(CN2CCC(Nc3ncnc4sc(CC(F)(F)F)cc34)CC2)ccc2c1cc(C#N)n2C[C@H](C)N1CCN(S(=O)(=O)N2CCC2)CC1 [Compound 121]", "50 to 250 nM"),
    ("CNc1nc(NC2CCN(Cc3ccc4c(cc(C#N)n4C[C@H](C)N4CCOC(C(=O)N(C)C)C4)c3C)CC2)c2cc(CC(F)(F)F)sc2n1 (stereo partly drawn) [Compound 215]", "< 50 nM"),
]

Proceed to the following item.
Query string: Form field: reported IC50 of Cc1c(CN2CCC(Nc3nc(N)nc4sc(CC(F)(F)F)cc34)CC2)ccc2c1cc(C#N)n2C[C@H](C)N1CCN(S(=O)(=O)CF)CC1 [Compound 149]
Result string: < 50 nM

----------
Target: Menin MLL 4-43 (Homo sapiens, UniProt O00255)
Sequence (O00255 1-610): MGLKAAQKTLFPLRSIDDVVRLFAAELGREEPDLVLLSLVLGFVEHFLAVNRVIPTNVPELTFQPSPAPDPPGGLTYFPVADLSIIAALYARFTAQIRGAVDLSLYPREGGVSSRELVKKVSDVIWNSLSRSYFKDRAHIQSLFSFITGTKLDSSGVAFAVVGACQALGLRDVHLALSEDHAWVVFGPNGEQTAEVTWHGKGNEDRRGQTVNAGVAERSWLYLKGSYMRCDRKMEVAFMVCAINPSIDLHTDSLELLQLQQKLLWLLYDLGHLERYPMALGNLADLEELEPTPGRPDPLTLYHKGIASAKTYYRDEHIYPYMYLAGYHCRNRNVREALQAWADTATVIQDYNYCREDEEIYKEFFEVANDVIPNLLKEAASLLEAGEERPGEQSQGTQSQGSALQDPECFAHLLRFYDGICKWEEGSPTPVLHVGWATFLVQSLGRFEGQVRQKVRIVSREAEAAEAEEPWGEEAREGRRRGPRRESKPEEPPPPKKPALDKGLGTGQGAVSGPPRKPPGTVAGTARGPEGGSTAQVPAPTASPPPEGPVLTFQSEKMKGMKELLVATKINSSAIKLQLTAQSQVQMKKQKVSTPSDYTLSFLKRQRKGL
Assay: Fluorescence polarization (FP) competition assay of the menin-MLL interaction
Type: binding
Conditions: fluorescence polarization assay; read-out: Menin MLL 4-43 IC50
pIC50: −log10 of the molar value.
QUANTITY MEASURED: pIC50

Study these solved cases before continuing.
# MOLECULE, MEASUREMENT TARGET, pIC50
records = [
    ("CCS(=O)(=O)N1CCN([C@@H](C)Cn2c(C#N)cc3c(C)c(CN4CCC(Nc5nc(NC)nc6sc(CC(F)(F)F)cc56)CC4)ccc32)CC1", "Menin MLL 4-43 (Homo sapiens, UniProt O00255)", "> 7.30"),
    ("Cc1c(CN2CCC(Nc3ncnc4sc(CC(F)(F)F)cc34)CC2)ccc2c1cc(C#N)n2CC(C)N1CC2CCC(C1)N2S(C)(=O)=O (stereo not drawn)", "Menin MLL 4-43 (Homo sapiens, UniProt O00255)", "> 7.30"),
    ("Cc1c(CN2CCC(Nc3nc(N(C)C)nc4sc(CC(F)(F)F)cc34)CC2)ccc2c1cc(C#N)n2C[C@H](C)N1CCN(S(C)(=O)=O)CC1", "Menin MLL 4-43 (Homo sapiens, UniProt O00255)", "< 6.00"),
]

Query string: Entry under review: Cc1c(CN2CCC(Nc3ncnc4sc(CC(F)(F)F)cc34)CC2)ccc2c1cc(C#N)n2CC(C)N1CCN(S(=O)(=O)NCCN)CC1 (stereo not drawn) . Reported pIC50?
Result string: > 7.30

Query string: GET /values?readout=pIC50&item= Cc1c(CN2CCC(Nc3ncnc4sc(CC(F)(F)F)cc34)CC2)ccc2c1cc(C#N)n2CCN1CC2CN(S(C)(=O)=O)CC2C1 (stereo not drawn)
Result string: 6.00 to 7.70

Query string: What does the data say about its pIC50? Entry: Cc1c(CN2CCC(Nc3ncnc4sc(CC(F)(F)F)cc34)CC2)ccc2c1cc(C#N)n2CC(C)N1CCN(S(C)(=O)=O)CC1 (stereo not drawn) [Compound 2]
Result string: 6.60 to 7.30

Query string: I'd like to know its pIC50. The molecule in question is Cc1c(CN2CCC(Nc3ncnc4sc(CC(F)(F)F)cc34)CC2)ccc2c1cc(C#N)n2CC(CO)N1CCN(S(C)(=O)=O)CC1 (stereo not drawn)
Result string: < 6.00

Query string: Please give the measured pIC50 for this molecule: `CNC(=O)CN1CCN([C@@H](C)Cn2c(C#N)cc3c(C)c(CN4CCC(Nc5nc(NC)nc6sc(CC(F)(F)F)cc56)CC4)ccc32)CC1`
Result string: > 7.30

Query string: Any idea what its pIC50 is? The molecule is `CNc1nc(NC2CCN(Cc3ccc4c(cc(C#N)n4C[C@H](C)N4CCNCC4=O)c3C)CC2)c2cc(CC(F)(F)F)sc2n1`
Result string: > 7.30

Query string: Which value of pIC50 has been reported for `Cc1c(CN2CCC(Nc3ncnc4sc(CC(F)(F)F)cc34)CC2)ccc2c1cc(C#N)n2C[C@H](C)N1CCN(S(=O)(=O)NC2CC2)CC1` in the records?
Result string: > 7.30

Query string: Data request, read-out pIC50, for `COCCNS(=O)(=O)N1CCN([C@@H](C)Cn2c(C#N)cc3c(C)c(CN4CCC(Nc5ncnc6sc(CC(F)(F)F)cc56)CC4)ccc32)CC1`
Result string: > 7.30

Query string: pIC50 lookup needed for `Cc1c(CN2CCC(Nc3ncnc4sc(CC(F)(F)F)cc34)CC2)ccc2c1cc(C#N)n2C[C@H](C)N1C[C@@H](C)N(S(=O)(=O)CF)[C@@H](C)C1` , thanks.
Result string: 6.60 to 7.30
